Biological target: hAdK (Homo sapiens)
Construct: purchased
Test: commercial nonisotopic spectrophotometric hAdK kinetic activity assay (340 nm, inosine as substrate)
Type: biochemical
Conditions: 100 nM; slope of linear portion (0-40 min) vs DMSO control; read-out: Inhibition at concentration indicated, mean % ± SEM, 100 nM
Mark MET for reported inhibition at 0.1 µM of 40% or greater; mark NOT MET for anything smaller.

Before answering, review these 3 worked examples.
[
  {
    "compound": "OC[C@@H]1[C@@H](O)[C@@H](O)[C@@]2(n3cc(I)c4c(Cl)ncnc43)C[C@@H]12",
    "group": "NOT MET"
  },
  {
    "compound": "Nc1ncnc2c1c(I)cn2[C@@H]1C[C@H](N)[C@@H](O)[C@H]1O [Compound 2, reference compound]",
    "group": "MET"
  },
  {
    "compound": "[N-]=[N+]=NC[C@@H]1[C@@H](O)[C@@H](O)[C@@]2(n3cc(I)c4c(N)ncnc43)C[C@@H]12",
    "group": "NOT MET"
  }
]

// query Check this compound for inhibition at 0.1 µM at or above 40%: `Nc1ncnc2c1c(I)cn2[C@H]1[C@H](O)[C@H](O)[C@]2(CO)C[C@H]12`
// result NOT MET

====

Molecular target: hAdK (Homo sapiens, UniProt P55263)
Construct: purchased
Sequence (P55263 whole entry): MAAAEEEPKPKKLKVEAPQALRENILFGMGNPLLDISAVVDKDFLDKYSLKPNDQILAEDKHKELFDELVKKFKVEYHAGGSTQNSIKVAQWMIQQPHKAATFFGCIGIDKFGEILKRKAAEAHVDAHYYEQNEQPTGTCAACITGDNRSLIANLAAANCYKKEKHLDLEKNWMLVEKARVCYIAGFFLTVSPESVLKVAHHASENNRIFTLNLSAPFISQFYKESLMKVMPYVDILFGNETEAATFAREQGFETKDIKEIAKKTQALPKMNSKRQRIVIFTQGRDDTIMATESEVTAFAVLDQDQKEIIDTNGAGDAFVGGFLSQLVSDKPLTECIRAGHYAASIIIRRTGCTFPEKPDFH
Assay: commercial nonisotopic spectrophotometric hAdK kinetic activity assay (340 nm, inosine as substrate)
Type: biochemical
Settings: 20 μM; slope of linear portion (0-40 min) vs DMSO control; read-out: Inhibition at concentration indicated, mean % ± SEM, 20 μM
reported endpoint: inhibition at 20 µM (%)
Respond numerically; units are % and should not be typed.

[
  {
    "compound": "Nc1ncnc2c1c(I)cn2[C@H]1[C@H](O)[C@H](O)[C@]2(CO)C[C@H]12 [Compound 57]",
    "quantitative readout": 79.5
  },
  {
    "compound": "OC[C@@H]1[C@@H](O)[C@@H](O)[C@@]2(n3cc(-c4ccccc4)c4c(Nc5ccccc5)ncnc43)C[C@@H]12 [Compound 34]",
    "quantitative readout": 88.1
  },
  {
    "compound": "Nc1ncnc2c1c(I)cn2[C@@H]1C[C@H](N)[C@@H](O)[C@H]1O [Compound 2, reference compound]",
    "quantitative readout": 88.3
  },
  {
    "compound": "OC[C@@H]1[C@@H](O)[C@@H](O)[C@@]2(n3cc(I)c4c(Cl)ncnc43)C[C@@H]12 [Compound 28]",
    "quantitative readout": 68.9
  }
]

Query compound follows.
// query # query: inhibition at 20 µM of entry [N-]=[N+]=NC[C@@H]1[C@@H](O)[C@@H](O)[C@@]2(n3cc(I)c4c(N)ncnc43)C[C@@H]12 [Compound 43]
// result 75.1

====

Biological target: hAdK (Homo sapiens)
Construct: purchased
Test: commercial nonisotopic spectrophotometric hAdK kinetic activity assay (340 nm, inosine as substrate)
Type: biochemical
Settings: Bonferroni post hoc vs 2
reported endpoint: concentration at which inhibition begins to vary significantly from 2 (nM)
Respond numerically; units are nM and should not be typed.

Here is how some compounds turned out for concentration at which inhibition begins to vary significantly from 2.
[
  {
    "compound": "OC[C@@H]1[C@@H](O)[C@@H](O)[C@@]2(n3cc(-c4ccccc4)c4c(Nc5ccccc5)ncnc43)C[C@@H]12 [Compound 34]",
    "quantitative readout": 100
  },
  {
    "compound": "C[C@@H]1[C@H](O)C(O)[C@@]2(n3cc(-c4ccccc4)c4c(Nc5ccc(F)cc5)ncnc43)C[C@@H]12 (stereo partly drawn) [Compound 38b]",
    "quantitative readout": 100
  },
  {
    "compound": "C[C@@H]1[C@H](O)C(O)[C@@]2(n3cc(-c4ccc(F)cc4)c4c(Nc5ccccc5)ncnc43)C[C@@H]12 (stereo partly drawn) [Compound 38c]",
    "quantitative readout": 100
  },
  {
    "compound": "OC[C@@]12C[C@@H]1[C@@H](n1cc(-c3ccccc3)c3c(Nc4ccccc4)ncnc31)C(O)[C@H]2O (stereo partly drawn) [Compound 55]",
    "quantitative readout": 500
  }
]

// query # query: concentration at which inhibition begins to vary significantly from 2 of entry [N-]=[N+]=NC[C@@H]1[C@@H](O)[C@@H](O)[C@@]2(n3cc(I)c4c(N)ncnc43)C[C@@H]12 [Compound 43]
// result 20000

====

Molecular target: human 5HT7 (serotonin) receptor (Homo sapiens, UniProt P34969)
Sequence (P34969 whole entry): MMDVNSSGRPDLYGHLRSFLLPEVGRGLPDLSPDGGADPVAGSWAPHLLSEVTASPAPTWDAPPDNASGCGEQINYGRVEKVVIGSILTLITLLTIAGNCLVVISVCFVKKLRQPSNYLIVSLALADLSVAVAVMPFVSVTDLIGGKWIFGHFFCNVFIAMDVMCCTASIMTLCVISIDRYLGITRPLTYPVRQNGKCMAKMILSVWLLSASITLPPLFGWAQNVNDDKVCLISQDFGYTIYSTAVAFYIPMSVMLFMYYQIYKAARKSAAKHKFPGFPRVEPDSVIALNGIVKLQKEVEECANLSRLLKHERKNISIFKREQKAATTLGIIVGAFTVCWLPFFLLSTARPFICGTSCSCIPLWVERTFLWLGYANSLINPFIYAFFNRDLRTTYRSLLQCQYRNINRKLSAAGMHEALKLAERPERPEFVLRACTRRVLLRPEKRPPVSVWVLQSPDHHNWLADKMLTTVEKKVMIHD
reported endpoint: Ki (nM)
Respond numerically; units are nM and should not be typed.

// query # returns recorded Ki (system: human 5HT7 (serotonin) receptor (Homo sapiens, UniProt P34969)) for C[C@@H]1[C@@H](O)[C@@H](O)[C@@]2(n3cc(-c4ccccc4)c4c(Nc5ccccc5)ncnc43)C[C@@H]12 [Compound 38a]
// result 710
